Data origin, for the record: the supplement of paper PMC10567573

Assay: protein stability index of a GFP-peptide fusion (GPS, HEK-293T) (PSI 1-6); higher = more stable;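 further: 24-mer peptide tiles fused after GFP, lentivirally expressed, FACS-sorted into six equal bins by GFP/DsRed ratio, decoded by Illumina sequencing, PSI is the read-weighted mean bin number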
Conditions: treatment: DMSO; c terminus: a fixed tail appended
Give protein stability index for every item shown.

Name the reported protein stability index value associated with the sequence HEKTVDIYGHVTLMRAQRNYMVQT [PTPRD]
2.32

Name the reported protein stability index value associated with the sequence EIPTGKKDHECSECGKTFIYNSHL [ZNF232]
3.7

Name the reported protein stability index value associated with the sequence SFNILVEDRVKLFGIEIEVTDIND [PCDHGA10]
2.17

Name the reported protein stability index value associated with the sequence QPIRGVEGSDYINASFIDGYRQQK [PTPRD]
4.31

Name the reported protein stability index value associated with the sequence DLLPVWLLEDMRASEAFHWDERGR [ANKRD9]
2.52

Name the reported protein stability index value associated with the sequence IIKTEKVDLELFPSPDMECADVPL [ETS1]
3.99

Name the reported protein stability index value associated with the sequence LEAVAGALVVALWGPLQDSLEHTL [TSPAN10]
3.12

Name the reported protein stability index value associated with the sequence VEYFQQSAVAMYMLYEKQKQQNVA [ZBED1]
2.4

Name the reported protein stability index value associated with the sequence ATYCVRTFALYKNGSSEKREVRQF [PTPRD]
2.44

Name the reported protein stability index value associated with the sequence DLSGRRLRDVNHEKAMAEWVKQQA [SDE2]
4.24

Name the reported protein stability index value associated with the sequence ADPLDTPPDSKEGIVVESNHDSHM [PDZK1]
5.53

Name the reported protein stability index value associated with the sequence QTPTKEELDAIIEEVDEDGSGTID [TNNC2]
5.67

Name the reported protein stability index value associated with the sequence CALEEYVRSQYPNQPTRFGKLLLR [NR2F2]
2.22

Name the reported protein stability index value associated with the sequence QCWKSLFIDTYSDVGRYIDHYAAI [FBXO3]
2.65

Name the reported protein stability index value associated with the sequence WAGFMVLLMIPWGSAAKLVCYFTN [CHIT1]
2.69

Name the reported protein stability index value associated with the sequence LNMFLAIINDTYSEVKEELAGQKD [PKD2L1]
2.21

Name the reported protein stability index value associated with the sequence RLWHTACASDEGEVIVFGGCANNL [KLHDC2]
2.75

Name the reported protein stability index value associated with the sequence MASPPRCSPTAHDRECKLPPPSAP [WDR88]
4.67

Name the reported protein stability index value associated with the sequence DRFAQDSEMKKCSDYESIEVPDSY [PPEF2]
5.15

Name the reported protein stability index value associated with the sequence FPPDLVFRADQRSGPRQLLTLYNP [MOSPD3]
3.13

Name the reported protein stability index value associated with the sequence KRRKSMSGASPKESTNPEKAHETL [CDC25A]
5.24

Name the reported protein stability index value associated with the sequence PEGTENPLGVDESLFSYGLRESIA [SLA]
4.04

Name the reported protein stability index value associated with the sequence KQQIANLDKQAKLSRAYDGTTYLP [USP39]
3.62

Name the reported protein stability index value associated with the sequence DLFDLCDRTFTLKTVLMIAIQLLS [CSNK1G1]
2.6

Name the reported protein stability index value associated with the sequence QQWFPSLELGHWLYQTELVENECY [TOR1AIP2]
2.55

Name the reported protein stability index value associated with the sequence EAKEGDLHRIEIPFKFHMLHSGLV [CARM1]
2.07

Name the reported protein stability index value associated with the sequence FIPECNDDGTYSQVQCHSYTGYCW [SMOC2]
2.79

====

Assay: protein stability index of a GFP-peptide fusion (GPS, HEK-293T) (PSI 1-6); higher = more stable
Conditions: treatment: MLN4924 1 uM, 8 h; c terminus: a fixed tail appended
Class key for protein stability index values: bottom bin = under 3, middle bin = from 3 up to 4, top bin = 4 and over

Sort YDIEVNTRRAQADLAYQLQVAKTK [FLOT1] into one of the categories.
top bin

Sort SFNILVEDRVKLFGIEIEVTDIND [PCDHGA10] into one of the categories.
bottom bin

Sort FRRGSGSACSLLCCCGRDPSEEHS [MCOLN1] into one of the categories.
middle bin

Sort VTPEAKDLINKMLTINPAKRITAS [CAMK2D] into one of the categories.
middle bin

Sort NEARHNFGIVEIDGMLYILGGEDG [GAN] into one of the categories.
bottom bin

Sort PPRSDTIANYELVYKDGEHGEEQR [PTPRD] into one of the categories.
top bin

Sort VVSTSGEQMKVYKCEHCRVLFLDH [IKZF1] into one of the categories.
bottom bin

Sort SGQRLGGYRTSAVASGLQFDVETR [WDFY2] into one of the categories.
middle bin

Sort SASPIKDQPVMAVKTGEDGSNLDD [FANCE] into one of the categories.
top bin

Sort SRVTDAAFNFLLVWYYCTLTIRES [TMEM120A] into one of the categories.
bottom bin

====

Assay: protein stability index of a GFP-peptide fusion (GPS, HEK-293T) (PSI 1-6); higher = more stable
Details: treatment: MLN4924 1 uM, 8 h; c terminus: a fixed tail appended
ENDPOINT NAME: protein stability index
Respond numerically, and do not add a unit to the figure.

Name the reported protein stability index value associated with the sequence PPSSPRTLRLEKLGHPALSQEEGK [PPFIA4]
5.19

Name the reported protein stability index value associated with the sequence ALSQLICFCRESRYMDQWVPVINL [GADD45A]
3.06

Name the reported protein stability index value associated with the sequence ILSFTVIMVGFILYCSTPTRTAEP [SLC35F2]
2.77

Name the reported protein stability index value associated with the sequence GTGGEEVEALQLSARWLEVLRTYL [FBXO33]
2.32

Name the reported protein stability index value associated with the sequence FVCQCFEGYILREDGKTCRRKDVC [MATN2]
3.09

Name the reported protein stability index value associated with the sequence EATNGREGLLRFSSWPFSIQDVVQ [AUP1]
3.09

Name the reported protein stability index value associated with the sequence SAGGHGGLLNDTSAPHLENSGHTI [KCNA4]
4.48

====

Experiment: protein stability index of a GFP-peptide fusion (GPS, HEK-293T) (PSI 1-6); higher = more stable
Conditions: treatment: MLN4924 1 uM, 8 h; c terminus: a fixed tail appended
Give protein stability index for every item shown.
Respond numerically, and do not add a unit to the figure.

Name the reported protein stability index value associated with the sequence IDVSNPQTVGVGRGRFTTYEIRVK [SNX3]
2.69

Name the reported protein stability index value associated with the sequence IQFWNSRQSLEGLSVRSVFFGVFQ [CLPTM1]
2.79

Name the reported protein stability index value associated with the sequence GYTFDYAYDWVGRPIPTPVGSVHV [CSNK1G1]
2.14

Name the reported protein stability index value associated with the sequence LHQTIYNQACKLLSDDYEQVRSAA [INTS4]
3.09

Name the reported protein stability index value associated with the sequence HSSSRDSHLSNGLDPVAETAIRQL [C2CD2L]
4.53

Name the reported protein stability index value associated with the sequence GDKCHSLVGKPKIFIIQACRGNQH [CASP6]
2.33

Name the reported protein stability index value associated with the sequence YNSEILEEAISVVMSGKMSVSKAQ [LCOR]
3.03

Name the reported protein stability index value associated with the sequence EKSGFSQHQNKSPPKVKAEDGMQC [DLC1]
5.22

Name the reported protein stability index value associated with the sequence LAKDFIRRLLVKDPKRRMTIAQSL [DAPK3]
2.7

Name the reported protein stability index value associated with the sequence LQYILAQIGFSVGLGNIWRFPYLC [SLC6A17]
2.88

Name the reported protein stability index value associated with the sequence VTAGCGFGKDFRKGLLKKGACYGD [PPTC7]
2.65

Name the reported protein stability index value associated with the sequence PEISRIIVDPTTGKRYCRGKVLGK [PLK2]
4.04

Name the reported protein stability index value associated with the sequence RDAKAAMAGRLMIRKLVAEKLNIP [AASDHPPT]
2.79

====

Test: protein stability index of a GFP-peptide fusion (GPS, HEK-293T) (PSI 1-6); higher = more stable
Conditions: treatment: DMSO; c terminus: a fixed tail appended
ENDPOINT NAME: protein stability index
Respond numerically, and do not add a unit to the figure.

Name the reported protein stability index value associated with the sequence DQLLLNYAKKESDLNGAQIKLREY [LMNB1]
3.62

Name the reported protein stability index value associated with the sequence MVKPLLHMLLNTTLNIKETDSKEL [ZBED1]
2.13

Name the reported protein stability index value associated with the sequence HPDSPATGAHWMRQPVSFHRVKLT [TBX6]
3.16

Name the reported protein stability index value associated with the sequence VLIRYPNSLDTTSWAWRGPGVLKV [LPCAT4]
2.77

Name the reported protein stability index value associated with the sequence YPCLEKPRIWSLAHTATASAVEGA [IRX6]
2.8

Name the reported protein stability index value associated with the sequence SIQSLTLEWNSLGTWDDAFATFCG [LRRC45]
2.25

Name the reported protein stability index value associated with the sequence ALWQVLARDCFATGRHYWEVDVQE [TRIM14]
2.4

Name the reported protein stability index value associated with the sequence EFCEPAFVVGNCLQIASDSHQYDR [PCMTD1]
3.5

Name the reported protein stability index value associated with the sequence AAKTLPGGAGKGRTPSAFPQTPAA [EHMT1]
4.26

Name the reported protein stability index value associated with the sequence SPRRVGFVGAGRMAGAIAQGLIRA [PYCR3]
2.66

Name the reported protein stability index value associated with the sequence SHKRKRSSGSFCYCHPDSETDEDE [GMCL1]
5.21

Name the reported protein stability index value associated with the sequence PKRCLKAREHFGTVKTHLTSLKTK [TSN]
3.72

Name the reported protein stability index value associated with the sequence GKHITVFKTYISPWERAMGVDPQQ [MYOZ1]
2.33
